Taken from PubChem BioAssay.

- experimental_system: Pro-neuregulin-1, membrane-bound isoform (Homo sapiens)
- test_name: NRG1 binders on small-molecule microarrays, primary screen, psychiatric disease protein project, biochemical, small-molecule microarray, fluorescence 635/667 (AID 1075);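 also: score combines 667 nm spot fluorescence with signal to noise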
- conditions: NRG1 binding, 635 nm fluorescence, higher = more signal
Assign class by composite z-score: not lower than 0.6 means rule met; lower than 0.6 means rule not met.

>  <compound>
COc1ccc([Si](C)(C)[C@@H]2[C@@H](CC(=O)N3CCC[C@H]3CO)O[C@]3(C(=O)N(C)c4c(Br)cc(C)cc43)[C@H]2C)cc1

>  <category_label>
rule met

$$$$
>  <compound>
O=C(CCN1CCOCC1)c1cccc(O)c1

>  <category_label>
rule met

$$$$
>  <compound>
COc1cccc(C(=O)O[C@H]2CC[C@]3(C)C4=C(CCC3C2(C)C)[C@]2(C)CC[C@H]([C@H](C)CCCC(C)C)[C@@]2(C)CC4)c1 (stereo partly specified)

>  <category_label>
rule not met

$$$$
>  <compound>
COc1ccc([Si](C)(C)[C@@H]2[C@@H](CCn3cc([C@H](O)c4ccccc4)nn3)O[C@]3(C(=O)N(Cc4ccc(N5C(=O)c6cccc7cccc5c67)cc4)c4ccccc43)[C@H]2C)cc1

>  <category_label>
rule not met

$$$$
>  <compound>
COc1ccc(CCNC(=O)[C@@]2(c3ccc([N+](=O)[O-])cc3)CC(=O)N(CC34CC5CC(CC(C5)C3)C4)[C@@H]2c2ccc(CO)cc2)cc1

>  <category_label>
rule met

$$$$
>  <compound>
COCCOC(=O)N1C(=O)[C@@]2(c3cc(C#CCNC(N)=O)ccc31)[C@H](c1ccc(OCCO)cc1)N1[C@H](c3ccccc3)[C@H](c3ccccc3)OC(=O)[C@H]1[C@@H]2C(=O)N1CCc2cc(OC)c(OC)cc2C1

>  <category_label>
rule not met

$$$$
